Entry source: PubChem BioAssay (NCI)

Test system: SNB-19 CNS
Test: NCI-60 one-dose screen, 48 h (100 = growth as untreated, 0 = no growth, -100 = all killed)
Details: 10 µM unless noted
The panel holds about 83,000 compounds, 20% with a hit somewhere; the sample as a whole holds those more often.
Mark YES only for growth values smaller than 40%; exact matches and larger values are NO.

Exercise: Dear reviewer, please state whether O=C(Nc1ccc(Cl)c(C(F)(F)F)c1)Nc1ccc(-c2cccnc2)cc1N1CCC(CO)CC1 has growth strictly beneath 40%.
Solution: YES

Exercise: Dear reviewer, please state whether COc1ccc(/C=C(/C(=O)c2ccc(Cl)cc2)C(=O)C(F)(F)F)cc1 has growth strictly beneath 40%.
Solution: NO
